Values compiled from patent US20250313560A1.

# Test system: human hepatocytes
# test summary: Metabolic stability in human hepatocytes
# assay conditions: 1 μM test compound, 50% human serum, percentage of liver blood flow
# note: exactly 20% is not below, so it is f; use t for Hepatic clearance - QH[%] in human hepatocytes strictly under it

Ask | Is it true that Hepatic clearance - QH[%] in human hepatocytes reported for C[C@@H](NC(=O)c1cc([C@H]2CC[C@H](N3C[C@H](F)C[C@@H]3CO)CC2)c2ncnn2c1)c1cccc(C(F)F)c1F [Example E60] is less than 20%?
Reply | f

Ask | Is it true that Hepatic clearance - QH[%] in human hepatocytes reported for C[C@@H](NC(=O)c1cc(N2CCC(N(C)CC(C)(C)O)CC2)c2ncnn2c1)c1cccc(C(F)F)c1F [Example E7] is less than 20%?
Reply | f

Ask | Is it true that Hepatic clearance - QH[%] in human hepatocytes reported for C[C@@H](NC(=O)c1cc(C2=CCC(N3CCC[C@H](O)C3)CC2)c2ncnn2c1)c1cccc(C(F)F)c1F (stereo partly shown) [Example E63] is less than 20%?
Reply | f

Ask | Is it true that Hepatic clearance - QH[%] in human hepatocytes reported for C[C@@H](NC(=O)c1cc([C@]2(O)CC[C@@H](N3CC[C@H](F)C3)CC2)c2ncnn2c1)c1cccc(C(F)(F)F)c1F [Example E71] is less than 20%?
Reply | t

Ask | Is it true that Hepatic clearance - QH[%] in human hepatocytes reported for C[C@@H](NC(=O)c1cc(N2CCC3(CCCN3)CC2)c2ncnn2c1)c1cccc(C(F)(F)F)c1F [Example E34] is less than 20%?
Reply | t

Ask | Is it true that Hepatic clearance - QH[%] in human hepatocytes reported for C[C@@H](NC(=O)c1cc(N2CCC(N3CC[C@@H](CO)C3)CC2)c2ncnn2c1)c1cccc(C(F)(F)F)c1F [Example E27] is less than 20%?
Reply | t

Ask | Is it true that Hepatic clearance - QH[%] in human hepatocytes reported for C[C@H](CO)NC1CCN(c2cc(C(=O)N[C@H](C)c3cccc(C(F)(F)F)c3F)cn3ncnc23)CC1 [Example E54] is less than 20%?
Reply | t

Ask | Is it true that Hepatic clearance - QH[%] in human hepatocytes reported for C[C@@H](NC(=O)c1cc([C@H]2CC[C@H](N3CCC(F)C(O)C3)CC2)c2ncnn2c1)c1cccc(C(F)F)c1F (single isomer, unassigned) [trans-E61a] is less than 20%?
Reply | f

Ask | Is it true that Hepatic clearance - QH[%] in human hepatocytes reported for C[C@@H](NC(=O)c1cc([C@H]2CC[C@H](N3CCC(F)C(O)C3)CC2)c2ncnn2c1)c1cccc(C(F)(F)F)c1F (single isomer, unassigned) [Example trans-E70a] is less than 20%?
Reply | f

Ask | Is it true that Hepatic clearance - QH[%] in human hepatocytes reported for C[C@@H](NC(=O)c1cc(N2CCC(N(C)CCO)CC2)c2ncnn2c1)c1cccc(C(F)(F)F)c1F [Example E55] is less than 20%?
Reply | t

Ask | Is it true that Hepatic clearance - QH[%] in human hepatocytes reported for C[C@@H](NC(=O)c1cc(N2CCC(N3CCO[C@@H](CO)C3)CC2)c2ncnn2c1)c1cccc(C(F)F)c1F [Example E15] is less than 20%?
Reply | f

Ask | Is it true that Hepatic clearance - QH[%] in human hepatocytes reported for CO[C@@H]1CCN(C2CCN(c3cc(C(=O)N[C@H](C)c4cccc(C(F)(F)F)c4F)cn4cnnc34)CC2)C1 [Example E75] is less than 20%?
Reply | t

Ask | Is it true that Hepatic clearance - QH[%] in human hepatocytes reported for C[C@@H](NC(=O)c1cc([C@H]2CC[C@H](N3CC[C@](C)(O)C3)CC2)c2ncnn2c1)c1cccc(C(F)F)c1F [Example E59] is less than 20%?
Reply | t
